Reference source for all entries: patent US5409933A

# experiment description: Acute Toxicity Test
# settings: mouse, in vivo, ip; ICR mice; 14th day; read-out: Acute Toxicity LD50, Peritomeo Injection
Structures can show the parent of a compound that is named as a salt.
Assignment: determine reported LD50 at 336 h for the given molecules.
Numbers only, in mg/kg.

molecule | LD50 at 336 h / mg/kg
O=C(C[N+](=O)[O-])c1cn(C2CC2)c2c(Cl)c(N3CC4=C(CNC4)C3)c(F)cc2c1=O [Example 34, hydrochloride] | 620
N[C@H]1CCN(c2c(F)cc3c(=O)c(C(=O)C[N+](=O)[O-])cn(C4CC4)c3c2Cl)C1 [Example 13, hydrochloride] | 580

Moving on to the next molecule.
Tell me measured LD50 at 336 h for CNCC1=CCN(c2c(F)cc3c(=O)c(C(=O)C[N+](=O)[O-])cn(C4CC4)c3c2Cl)C1 [Example 16, hydrochloride] please.
605
